# Species on record: Homo sapiens
# experiment: Selectivity index, ratio of IC50 for recombinant TRIM24 (unknown origin) to IC50 for recombinant TRIM33 PHD bromodomain (unknown origin)
measurement-type: Ratio IC50
No unit in the answer, only the number.

Below, each entry is followed by its recorded Ratio IC50 result.
CCCOc1ccn2c(C(C)=O)cc(-c3nc4cnccn4c3Nc3ccc(OC)cc3)c2c1; 5.87
Cc1[nH]cnc1-c1nc2ccc(Br)cn2c1NC1CCCCC1; 8.27
COCCNc1c(-c2c[nH]c(C)n2)nc2ccc(Br)cn12; 30.8
COC(=O)c1ccc2nc(-c3c[nH]c(C)n3)c(NCCN3CCOCC3)n2c1; 40.3
CCCOc1ccn2c(C(C)=O)cc(-c3nc4ccc(C(=O)OC)cn4c3Nc3ccc(OC)cc3)c2c1; 7.3
Cc1[nH]cnc1-c1nc2ccc(Br)cn2c1NCc1ccc(C#N)cc1; 2.91

Inquiry: Tell us which Ratio IC50 value is on record for COC(=O)c1ccc2nc(-c3ccc4nccn4c3)c(NCc3ccc(C#N)cc3)n2c1
Reply text: 486

Inquiry: Look up Ratio IC50 of Cc1nc(-c2nc3ccccn3c2NC2CCCCC2)c[nH]1 and report it.
Reply text: 16.4

Inquiry: Tell us which Ratio IC50 value is on record for CCCOc1ccn2c(C(C)=O)cc(-c3nc4cnccn4c3NCCN3CCOCC3)c2c1
Reply text: 32.9

Inquiry: Give a short answer stating reported Ratio IC50 for COCCNc1c(-c2ccc3nccn3c2)nc2cnccn12 .
Reply text: 28.6

###

This listing pairs compounds with measured pIC50.
# system-tested: Transcription intermediary factor 1-alpha (Homo sapiens, UniProt O15164)
# Sequence (O15164 whole entry): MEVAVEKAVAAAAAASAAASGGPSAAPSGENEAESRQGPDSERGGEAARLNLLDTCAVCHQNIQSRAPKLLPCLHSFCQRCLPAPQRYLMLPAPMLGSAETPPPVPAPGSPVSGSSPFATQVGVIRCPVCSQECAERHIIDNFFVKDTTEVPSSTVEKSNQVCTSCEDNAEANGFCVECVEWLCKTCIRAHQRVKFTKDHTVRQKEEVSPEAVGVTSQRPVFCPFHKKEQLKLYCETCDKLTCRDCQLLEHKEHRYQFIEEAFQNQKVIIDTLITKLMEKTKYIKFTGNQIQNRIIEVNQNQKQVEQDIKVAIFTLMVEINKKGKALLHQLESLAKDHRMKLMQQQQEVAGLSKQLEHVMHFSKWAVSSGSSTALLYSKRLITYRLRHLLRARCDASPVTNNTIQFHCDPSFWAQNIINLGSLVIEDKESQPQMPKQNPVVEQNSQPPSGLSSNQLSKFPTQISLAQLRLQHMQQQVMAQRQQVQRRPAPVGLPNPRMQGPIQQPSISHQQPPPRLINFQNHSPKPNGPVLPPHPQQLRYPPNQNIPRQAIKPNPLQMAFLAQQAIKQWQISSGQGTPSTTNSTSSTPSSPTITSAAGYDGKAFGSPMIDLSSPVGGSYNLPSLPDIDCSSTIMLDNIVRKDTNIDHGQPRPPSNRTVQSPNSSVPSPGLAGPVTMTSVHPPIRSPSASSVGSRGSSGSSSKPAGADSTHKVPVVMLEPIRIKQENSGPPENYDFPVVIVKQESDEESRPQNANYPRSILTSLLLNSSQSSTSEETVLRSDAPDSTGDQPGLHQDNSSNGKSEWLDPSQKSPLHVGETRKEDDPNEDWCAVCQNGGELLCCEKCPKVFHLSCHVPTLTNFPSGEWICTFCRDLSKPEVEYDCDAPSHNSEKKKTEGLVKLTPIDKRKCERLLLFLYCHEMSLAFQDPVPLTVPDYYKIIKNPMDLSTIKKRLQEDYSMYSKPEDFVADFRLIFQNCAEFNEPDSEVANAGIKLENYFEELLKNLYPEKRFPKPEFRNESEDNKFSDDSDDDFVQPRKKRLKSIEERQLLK
# experiment: Inhibition of recombinant TRIM24 (unknown origin) using biotinylated H3 peptide (H3K9me3K18ac) by AlphaScreen assay
FYI, pIC50 means -log10 of a concentration in mol per litre.

Inquiry: For c1ccn2c(NC3CCCCC3)c(-c3ccc4nccn4c3)nc2c1 , write its pIC50.
Reply text: 3.60

Inquiry: Name the recorded pIC50 of the item c1cn2c(NCCN3CCOCC3)c(-c3ccc4nccn4c3)nc2cn1 in your answer.
Reply text: 2.66

meta.source: ChEMBL document CHEMBL4418499
